System: Ruminococcus gnavus DSM 108212
test protocol: fold change of 2-Phenylethylamine concentration vs plate DMSO controls (fold change (ratio)); higher = more amine produced, active = hit call of the paper (significant change in both replicates, either direction)
test settings: 20 µM; incubation time: 27 h, anaerobic, 37 °C
Structures can show the parent of a compound that is named as a salt.
Listed here are molecules together with their documented fold change of 2-Phenylethylamine concentration.
recorded metric: fold change of 2-Phenylethylamine concentration

INSERT INTO results (molecule, recorded_value) VALUES
  ('CC(Oc1ccc(Oc2nc3ccc(Cl)cc3o2)cc1)C(=O)O (racemic)', 1.01),
  ('CC(COc1ccc(Oc2ccccc2)cc1)Oc1ccccn1 (stereo not given)', 1.08),
  ('CC(O)(CS(=O)(=O)c1ccc(F)cc1)C(=O)Nc1ccc(C#N)c(C(F)(F)F)c1 (stereo not given) [Bicalutamide]', 1.04),
  ('O=P1(N(CCCl)CCCl)NCCCO1 (stereo not given) [Cyclophosphamide]', 1.03),
  ('C#C[C@]1(O)CC[C@H]2[C@@H]3CCC4=CC(=O)CC[C@]4(C)[C@H]3CC[C@@]21C', 1.04),
  ('CCC(C)c1ccccc1OC(=O)NC (stereo not given)', 1.03),
  ('CSc1nnc(C(C)(C)C)c(=O)n1N', 1.13),
  ('CCOc1ccc(C(C)(C)COCc2cccc(Oc3ccccc3)c2)cc1', 1.05),
  ('CCc1cccc(C)c1N(C(=O)CCl)[C@@H](C)COC', 1.04),
  ('CCCCCCCCCCCCN=C(N)N', 0.893),
  ('COc1ccc(C(=O)N2CCCC2=O)cc1', 1.03),
  ('CCCN(CCC)C(=O)SCc1ccccc1', 0.897),
  ('COCC(=O)N(c1c(C)cccc1C)C(C)C(=O)OC (stereo not given)', 0.983),
  ('COc1ccc(C(CN(C)C)C2(O)CCCCC2)cc1 (stereo not given)', 1.06),
  ('O=C(O)c1nc(Cl)ccc1Cl', 1.02),
  ('CN(C)C(=O)Oc1ccc[n+](C)c1 [Pyridostigmine iodide]', 1.02),
  ('CC[C@@H](CO)NC(=O)[C@@H]1C=C2c3cccc4[nH]cc(c34)C[C@H]2N(C)C1 [Methylergometrine maleate]', 1.02),
  ('Oc1ccc(Cl)cc1Cc1cc(Cl)ccc1O', 0.635),
  ('COC(=O)N(C(=O)N1CO[C@@]2(C(=O)OC)Cc3cc(Cl)ccc3C2=N1)c1ccc(OC(F)(F)F)cc1', 0.986),
  ('C1CCc2nnnn2CC1', 0.876),
  ('CC(Oc1ccc(Oc2ncc(C(F)(F)F)cc2Cl)cc1)C(=O)O (stereo not given)', 0.982),
  ('C[C@H](N)[C@H](O)c1ccc(O)c(O)c1', 1.14),
  ('Cc1cc(C(C#N)c2ccc(Cl)cc2)c(Cl)cc1NC(=O)c1cc(I)cc(I)c1O (stereo not given)', 0.11),
  ('Fc1ccc([C@]2(Cn3cncn3)O[C@H]2c2ccccc2Cl)cc1 (racemic)', 1.02),
  ('N[C@@H]1C[C@H]1c1ccccc1 [Tranylcypromine hydrochloride]', 0.928),
  ('CN1C(=O)COc2c(C(=O)NC3CN4CCC3CC4)cc(Cl)cc21 (stereo not given) [Azasetron hydrochloride]', 0.986),
  ('C[C@]12CC[C@H](O)C[C@H]1CC[C@@H]1[C@@H]2CC[C@]2(C)[C@@H](C3=CC(=O)OC3)CC[C@]12O', 1.03),
  ('c1ccc2c(c1)-c1cccc3cccc-2c13', 1.04),
  ('CCN(C)C(=O)Oc1cccc([C@H](C)N(C)C)c1', 1.18),
  ('OCC(O)CCl (racemic)', 1.18),
  ('COP(N)(=O)SC (stereo not given)', 1.06),
  ('Cc1nc(N(C)C)nc(OC(=O)N(C)C)c1C', 0.945),
  ('N#Cc1nn(-c2c(Cl)cc(C(F)(F)F)cc2Cl)c(N)c1[S+]([O-])C(F)(F)F (stereo not given)', 1.27),
  ('C#C[C@]1(O)CC[C@H]2[C@@H]3CCC4=CC(=O)CCC4=C3C=C[C@@]21CC', 1.18),
  ('CCC1(c2ccc(N)cc2)CCC(=O)NC1=O (stereo not given) [Glutethimide, para-amino]', 1);
